test.system: UniProtKB Q13237
Sequence (Q13237 whole entry, looked up): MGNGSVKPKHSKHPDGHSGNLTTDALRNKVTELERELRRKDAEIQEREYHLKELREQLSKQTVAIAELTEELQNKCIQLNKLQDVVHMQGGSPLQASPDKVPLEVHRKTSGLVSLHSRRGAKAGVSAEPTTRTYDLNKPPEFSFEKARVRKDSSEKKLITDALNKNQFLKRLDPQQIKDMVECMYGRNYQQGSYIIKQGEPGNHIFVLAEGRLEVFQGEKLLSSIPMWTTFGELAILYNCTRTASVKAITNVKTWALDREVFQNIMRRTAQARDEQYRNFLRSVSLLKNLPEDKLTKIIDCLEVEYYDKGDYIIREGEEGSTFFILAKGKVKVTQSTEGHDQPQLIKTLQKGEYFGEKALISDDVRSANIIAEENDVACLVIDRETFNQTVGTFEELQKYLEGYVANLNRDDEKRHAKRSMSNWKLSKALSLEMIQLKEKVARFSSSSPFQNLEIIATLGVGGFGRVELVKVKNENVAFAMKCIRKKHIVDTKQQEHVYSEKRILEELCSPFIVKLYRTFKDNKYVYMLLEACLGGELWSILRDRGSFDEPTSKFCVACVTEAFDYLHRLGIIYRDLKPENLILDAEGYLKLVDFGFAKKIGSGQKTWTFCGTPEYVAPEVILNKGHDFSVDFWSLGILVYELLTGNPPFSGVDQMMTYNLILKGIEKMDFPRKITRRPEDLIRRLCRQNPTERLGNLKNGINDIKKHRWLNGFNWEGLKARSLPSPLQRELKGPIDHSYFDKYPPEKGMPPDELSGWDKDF
protocol.details: KINOMEscan competition binding
conditions: compound 10.0 µM
Recorded kinase still bound, per cent of control, one value per entry.
observable: kinase still bound, per cent of control

- Cc1cnc(-c2cnc(NCCNc3ccc(C#N)cn3)nc2-c2ccc(Cl)cc2Cl)[nH]1: 100%
- COc1ccc(CNC(=O)Nc2ncc([N+](=O)[O-])s2)cc1: 100%
- O=C1Nc2cc(Br)ccc2/C1=C1/Nc2ccccc2/C1=N\O: 24%
- Cn1cc(C2=C(c3ccc(Cl)cc3Cl)C(=O)NC2=O)c2ccccc21: 73%

====

test.system: NUAK2 (human) (UniProt Q9H093)
Sequence (Q9H093 whole entry, looked up): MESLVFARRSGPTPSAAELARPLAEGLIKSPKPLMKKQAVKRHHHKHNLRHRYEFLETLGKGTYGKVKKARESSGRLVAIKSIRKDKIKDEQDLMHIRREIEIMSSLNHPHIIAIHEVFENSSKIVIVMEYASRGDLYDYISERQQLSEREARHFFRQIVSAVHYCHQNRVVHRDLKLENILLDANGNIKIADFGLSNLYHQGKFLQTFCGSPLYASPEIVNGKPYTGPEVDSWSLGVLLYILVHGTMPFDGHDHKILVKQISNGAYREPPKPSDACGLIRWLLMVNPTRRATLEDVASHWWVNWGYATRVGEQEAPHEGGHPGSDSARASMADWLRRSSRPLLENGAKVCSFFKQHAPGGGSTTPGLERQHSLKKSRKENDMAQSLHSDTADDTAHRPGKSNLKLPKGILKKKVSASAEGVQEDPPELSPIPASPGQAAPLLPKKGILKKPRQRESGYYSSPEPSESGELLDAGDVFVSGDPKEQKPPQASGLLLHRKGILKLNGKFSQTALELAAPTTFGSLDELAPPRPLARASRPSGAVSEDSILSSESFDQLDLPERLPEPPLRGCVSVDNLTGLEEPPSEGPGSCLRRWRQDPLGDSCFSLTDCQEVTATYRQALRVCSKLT
protocol.details: KINOMEscan competition binding
conditions: compound 10.0 µM
Recorded kinase still bound, per cent of control, one value per entry.
observable: kinase still bound, per cent of control (%)

* Cc1cnc(-c2cnc(NCCNc3ccc(C#N)cn3)nc2-c2ccc(Cl)cc2Cl)[nH]1 | 94
* O=C1Nc2cc(Br)ccc2/C1=C1/Nc2ccccc2/C1=N\O | 39
* Cn1cc(C2=C(c3ccc(Cl)cc3Cl)C(=O)NC2=O)c2ccccc21 | 100
* COc1ccc(CNC(=O)Nc2ncc([N+](=O)[O-])s2)cc1 | 93

====

test.system: STK3 (human)
protocol.details: KINOMEscan competition binding
conditions: compound 10.0 µM
observable: kinase still bound, per cent of control (%)

• O=C1Nc2cc(Br)ccc2/C1=C1/Nc2ccccc2/C1=N\O = 0
• Cc1cnc(-c2cnc(NCCNc3ccc(C#N)cn3)nc2-c2ccc(Cl)cc2Cl)[nH]1 = 100
• Cn1cc(C2=C(c3ccc(Cl)cc3Cl)C(=O)NC2=O)c2ccccc21 = 9.9
• COc1ccc(CNC(=O)Nc2ncc([N+](=O)[O-])s2)cc1 = 3.4

====

test.system: LYN (human) (UniProt P07948)
Sequence (P07948 whole entry, looked up): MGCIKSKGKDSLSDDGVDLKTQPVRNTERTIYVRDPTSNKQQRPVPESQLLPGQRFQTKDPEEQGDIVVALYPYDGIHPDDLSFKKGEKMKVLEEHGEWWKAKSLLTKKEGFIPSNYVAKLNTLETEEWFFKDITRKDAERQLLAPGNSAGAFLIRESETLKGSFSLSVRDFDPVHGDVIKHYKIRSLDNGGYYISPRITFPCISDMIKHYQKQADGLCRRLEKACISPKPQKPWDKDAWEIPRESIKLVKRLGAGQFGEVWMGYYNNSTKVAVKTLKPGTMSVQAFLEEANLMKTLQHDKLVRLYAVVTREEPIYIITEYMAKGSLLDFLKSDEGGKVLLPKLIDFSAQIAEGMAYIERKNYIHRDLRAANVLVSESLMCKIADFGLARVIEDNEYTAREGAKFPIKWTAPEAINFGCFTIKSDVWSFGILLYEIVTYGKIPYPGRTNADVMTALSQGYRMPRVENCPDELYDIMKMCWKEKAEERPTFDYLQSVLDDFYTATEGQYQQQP
protocol.details: KINOMEscan competition binding
conditions: compound 10.0 µM
observable: kinase still bound, per cent of control (%)

* O=C1Nc2cc(Br)ccc2/C1=C1/Nc2ccccc2/C1=N\O | 6.2
* Cn1cc(C2=C(c3ccc(Cl)cc3Cl)C(=O)NC2=O)c2ccccc21 | 100
* Cc1cnc(-c2cnc(NCCNc3ccc(C#N)cn3)nc2-c2ccc(Cl)cc2Cl)[nH]1 | 100
* COc1ccc(CNC(=O)Nc2ncc([N+](=O)[O-])s2)cc1 | 74

====

System: ABL1 (human), P00519 [F317L]
Sequence (P00519 whole entry F317L, looked up): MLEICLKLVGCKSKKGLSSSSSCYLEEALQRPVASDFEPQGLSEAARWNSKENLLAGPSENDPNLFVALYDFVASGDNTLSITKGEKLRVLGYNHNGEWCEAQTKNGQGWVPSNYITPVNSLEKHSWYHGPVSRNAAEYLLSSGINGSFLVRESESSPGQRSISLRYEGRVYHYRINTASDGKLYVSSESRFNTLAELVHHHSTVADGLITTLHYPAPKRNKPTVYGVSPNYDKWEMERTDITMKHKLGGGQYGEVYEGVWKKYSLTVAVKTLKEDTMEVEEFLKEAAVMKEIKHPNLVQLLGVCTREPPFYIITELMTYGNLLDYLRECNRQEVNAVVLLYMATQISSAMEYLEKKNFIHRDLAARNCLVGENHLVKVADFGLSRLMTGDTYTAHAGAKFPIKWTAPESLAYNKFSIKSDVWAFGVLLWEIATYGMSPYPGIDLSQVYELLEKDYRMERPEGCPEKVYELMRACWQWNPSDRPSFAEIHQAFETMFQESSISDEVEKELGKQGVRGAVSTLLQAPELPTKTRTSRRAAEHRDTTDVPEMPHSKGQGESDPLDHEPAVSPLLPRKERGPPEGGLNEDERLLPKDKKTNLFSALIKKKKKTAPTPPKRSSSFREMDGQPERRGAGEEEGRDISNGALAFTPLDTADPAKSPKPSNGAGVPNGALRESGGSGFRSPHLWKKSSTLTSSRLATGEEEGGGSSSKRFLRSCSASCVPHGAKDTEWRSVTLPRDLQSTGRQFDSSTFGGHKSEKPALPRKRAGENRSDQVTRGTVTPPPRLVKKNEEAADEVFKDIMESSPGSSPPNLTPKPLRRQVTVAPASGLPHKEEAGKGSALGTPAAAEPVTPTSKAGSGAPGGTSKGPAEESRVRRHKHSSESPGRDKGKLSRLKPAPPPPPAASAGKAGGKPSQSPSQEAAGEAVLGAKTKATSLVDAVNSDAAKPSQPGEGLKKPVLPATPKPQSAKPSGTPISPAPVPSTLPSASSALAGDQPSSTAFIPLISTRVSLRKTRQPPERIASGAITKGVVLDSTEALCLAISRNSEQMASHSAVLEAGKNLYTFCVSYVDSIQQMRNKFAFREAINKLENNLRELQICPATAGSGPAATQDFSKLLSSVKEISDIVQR
protocol.details: KINOMEscan competition binding
conditions: compound 10.0 µM
observable: kinase still bound, per cent of control (%)

- Cc1cnc(-c2cnc(NCCNc3ccc(C#N)cn3)nc2-c2ccc(Cl)cc2Cl)[nH]1: 100
- O=C1Nc2cc(Br)ccc2/C1=C1/Nc2ccccc2/C1=N\O: 5.2
- Cn1cc(C2=C(c3ccc(Cl)cc3Cl)C(=O)NC2=O)c2ccccc21: 100
- COc1ccc(CNC(=O)Nc2ncc([N+](=O)[O-])s2)cc1: 100

====

test.system: TLK2 (human)
protocol.details: KINOMEscan competition binding
conditions: compound 10.0 µM
Recorded kinase still bound, per cent of control, one value per entry.
observable: kinase still bound, per cent of control (%)

* O=C1Nc2cc(Br)ccc2/C1=C1/Nc2ccccc2/C1=N\O | 56
* Cn1cc(C2=C(c3ccc(Cl)cc3Cl)C(=O)NC2=O)c2ccccc21 | 62
* COc1ccc(CNC(=O)Nc2ncc([N+](=O)[O-])s2)cc1 | 93
* Cc1cnc(-c2cnc(NCCNc3ccc(C#N)cn3)nc2-c2ccc(Cl)cc2Cl)[nH]1 | 80
